Source of measurements: patent US20150274841A1

System Tested: T1, human plasma kallikrein (PKal) (human, UniProt P03952 20-638)
T1 construct: Active PKal is cleaved at the marked R/I site into two disulfide-linked chains; also called human Pkal; active PKal
T1 sequence (P03952 20-638 limits assumed): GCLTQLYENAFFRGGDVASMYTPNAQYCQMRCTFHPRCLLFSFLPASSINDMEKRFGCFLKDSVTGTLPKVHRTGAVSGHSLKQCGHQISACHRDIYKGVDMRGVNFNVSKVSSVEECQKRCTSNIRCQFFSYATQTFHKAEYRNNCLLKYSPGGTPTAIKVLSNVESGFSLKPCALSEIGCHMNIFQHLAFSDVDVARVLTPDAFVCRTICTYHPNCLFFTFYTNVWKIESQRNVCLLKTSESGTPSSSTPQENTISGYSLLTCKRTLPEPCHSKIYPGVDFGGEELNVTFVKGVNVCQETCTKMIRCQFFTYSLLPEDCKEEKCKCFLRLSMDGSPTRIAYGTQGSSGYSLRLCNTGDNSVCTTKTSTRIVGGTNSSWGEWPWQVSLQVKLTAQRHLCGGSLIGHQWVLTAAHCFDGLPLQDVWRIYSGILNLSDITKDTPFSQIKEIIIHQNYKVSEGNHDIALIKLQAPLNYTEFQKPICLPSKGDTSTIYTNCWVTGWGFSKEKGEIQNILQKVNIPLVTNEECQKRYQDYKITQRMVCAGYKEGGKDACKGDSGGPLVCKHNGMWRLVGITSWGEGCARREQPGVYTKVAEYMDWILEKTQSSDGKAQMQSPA
Experiment Description: Ki,app; Fab inhibition of PKal cleavage of a substrate peptide, Morrison fit
Readout Kind: pKi
Hey, just a heads up that pKi is the negative log base 10 of the concentration in molar.

The recorded pKi for X133-F10 (Fab, V domains shown) VH: EVQLLESGGGLVQPGGSLRLSCAASGFTFSHYIMMWVRQAPGKGLEWVSGIYSSGGITVYADSVKGRFTISRDNSKNTLYLQMNSLRAEDTAVYYCAYRRTGLPRRDAFDIWGQGTMVTVSS VL: DIQMTQSPSTLSASVGDRVTITCRASQSISSWLAWYQQKPGKAPNLLIYKASTLESGVPSRFSGSGSGTEFTLTISSLQPDDFATYYCQQYNTYWTFGQGTKVEIK is 7.83

The recorded pKi for M0201-F11 (Fab, V domains shown) VH: EVQLLESGGGLVQPGGSLRLSCAASGFTFSHYIMMWVRQAPGKGLEWVSGIYSSGGITVYADSVKGRFTISRDNSKNTLYLQMNSLRAEDTAVYYCAYRRSGIPRRDAFDIWGQGTMVTVSS VL: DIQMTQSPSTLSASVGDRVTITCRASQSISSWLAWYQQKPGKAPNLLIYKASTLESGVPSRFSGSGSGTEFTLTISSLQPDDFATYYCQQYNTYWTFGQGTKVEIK is 8.52

The recorded pKi for M0201-H06 (Fab, V domains shown) VH: EVQLLESGGGLVQPGGSLRLSCAASGFTFSHYIMMWVRQAPGKGLEWVSGIYSSGGITVYADSVKGRFTISRDNSKNTLYLQMNSLRAEDTAVYYCAYRRTGVPRRDAFDIWGQGTMVTVSS VL: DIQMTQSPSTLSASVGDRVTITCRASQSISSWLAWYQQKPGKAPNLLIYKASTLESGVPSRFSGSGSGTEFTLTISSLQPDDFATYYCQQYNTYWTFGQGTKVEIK is 9.22
